Tested on: Salmonella typhimurium
Experiment: Antimicrobial activity against Salmonella Typhimurium ATCC 14028 assessed as inhibition of planktonic growth at 20 uM at 25 degC after 24 hrs
Type: functional, organism-based
Conditions: Salmonella enterica subsp. enterica serovar Typhimurium
Calls of active or inactive are those of the source. No cut-off for these calls is given here.
Assay readout: inhibition

Exercise: Quick check: inhibition on Salmonella typhimurium, item "CCCCCCCCn1c(-c2ccc(F)cc2)cnc1N" ?
Solution: Active

Exercise: Quick check: inhibition on Salmonella typhimurium, item "CCCCCn1c(-c2ccccc2)cnc1N" ?
Solution: inactive

Exercise: Quick check: inhibition on Salmonella typhimurium, item "Nc1ncc(-c2ccc(-c3ccccc3)cc2)n1C1CCCCCC1" ?
Solution: Active

Exercise: Quick check: inhibition on Salmonella typhimurium, item "CCn1c(-c2ccc(Cl)cc2)cnc1N" ?
Solution: inactive

Exercise: Quick check: inhibition on Salmonella typhimurium, item "CCCCCCCCCn1c(-c2ccc(Cl)cc2)cnc1N" ?
Solution: Active

Exercise: Quick check: inhibition on Salmonella typhimurium, item "CCCCCCCC[n+]1c(-c2cccc(Br)c2)cn2cccnc21.[O-][Cl+3]([O-])([O-])[O-]" ?
Solution: Active

More entries:
Exercise: Quick check: inhibition on Salmonella typhimurium, item "CCCCCCCCCn1c(-c2ccc(-c3ccccc3)cc2)cnc1N" ?
Solution: inactive

Exercise: Quick check: inhibition on Salmonella typhimurium, item "CCCCCCCCn1c(-c2ccc(Cl)cc2)cnc1N" ?
Solution: Active

Exercise: Quick check: inhibition on Salmonella typhimurium, item "CCn1c(-c2ccc(-c3ccccc3)cc2)cnc1N" ?
Solution: inactive

Data credit: ChEMBL document CHEMBL1649413
